- protocol_notes: chemical genetic growth profiling, strain panel (AID 1159580);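 further: tested at 20 µM; growth read once vehicle control cultures reached saturation at 30 °C; 1 = growth at the plate median or of vehicle wells; lower values mean less growth of the strain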
- details: S. cerevisiae deletion strains, growth OD, locus YJL092W, strain hpr5, active compounds read low
Among all 5,500 compounds or so, about 2,000 (36%) were called active. About 18% were inconclusive and are not listed. Some of the results follow.
endpoint: normalized growth
Give the figure only, with no unit attached.

compound	normalized growth
COC(=O)[C@@]1(C)CCC[C@]2(C)c3ccc(O)c(C(C)C)c3CCC12 (stereo not given in full)	0.979
O=C(OC1Cc2c(O)cc(O)cc2OC1c1cc(=O)c(O)c2c(O)c(O)cc(C3Oc4cc(O)cc(O)c4CC3O)c2c1)c1cc(O)c(O)c(O)c1 (stereo not given)	0.992
CC(C1OC(C)(C)C(O)C1O)[C@@H]1CC[C@]2(C)C3=CCC4C(C)(C)C(=O)CC[C@]4(C)C3CC[C@@]12C (stereo not given in full)	1
CC[n+]1c(-c2ccccc2)c2cc(N)ccc2c2ccc(N)cc21	0.946
O=c1c(O)c(-c2ccc(O)c(O)c2)oc2cc(O)cc(O)c12	0.955
CC1O[C@@H](Oc2c(-c3ccc(O)c(O)c3)oc3cc(O)cc(O)c3c2=O)[C@H](O)[C@H](O)[C@H]1O (stereo not given in full)	0.985
N#Cc1nn(-c2c(Cl)cc(C(F)(F)F)cc2Cl)c(N)c1S(=O)C(F)(F)F (stereo not given)	0.992
CCCCOc1cc(C(=O)NCCN(CC)CC)c2ccccc2n1	0.979

## Input Reported normalized growth, compound `COc1ccc(-c2cc(=O)c3c(O)cc(O[C@H]4O[C@H](CO[C@@H]5O[C@@H](C)[C@H](O)[C@@H](O)[C@H]5O)[C@@H](O)[C@H](O)[C@H]4O)cc3o2)cc1` : ____
## Output 0.997

====

Listing of entries alongside the reported normalized growth.
- protocol_notes: chemical genetic growth profiling, strain panel (AID 1159580);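 further: tested at 20 µM; growth read once vehicle control cultures reached saturation at 30 °C; 1 = growth at the plate median or of vehicle wells; lower values mean less growth of the strain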
- details: S. cerevisiae deletion strains, growth OD, locus YCR088W, strain abp1, active compounds read low
In all, about 5,500 compounds went through this assay and about 2,000 (36%) were called active. About 18% were inconclusive and are not listed. The list shows a part of the results.
Give the figure only, with no unit attached.

Some entries whose results are on file:
                                   compound           endpoint  quantitative_result
0  C[N+](C)(C)CC(O)CC(=O)O (stereo unspecified)  normalized growth                0.986
1  C[C@]12CCC3c4ccc(O)cc4CCC3C1C[C@@H](O)[C@@H]2O (stereo partly specified)  normalized growth                 1.01
2  CC(=O)O[C@@H]1CC2C(C)(C)C(=O)C=C[C@]2(C)C2CC[C@@]3(C)[C@H](c4ccoc4)OC(=O)[C@H]4O[C@]43[C@@]21C (stereo partly specified)  normalized growth                 0.98
3  CC1(C)C2CC(=O)[C@]3(C)C(CC[C@@]4(C)[C@H](c5ccoc5)OC(=O)[C@H]5O[C@]543)[C@@]2(C)C(=O)C[C@H]1O (stereo partly specified)  normalized growth                 1.01
4                 COc1c2ccoc2cc2oc(=O)ccc12  normalized growth                0.987

## Input Reported normalized growth, compound COc1ccc2c(c1)CCC1C2CC[C@@]2(C)C1CC[C@@H]2O (stereo partly specified) : ____
## Output 0.937

## Input Reported normalized growth, compound CCCCC1C(=O)N(c2ccccc2)N(c2ccc(O)cc2)C1=O (stereo unspecified) : ____
## Output 1.01

## Input Reported normalized growth, compound `COc1cc2occc2c2oc(=O)ccc12` : ____
## Output 1.02

## Input Reported normalized growth, compound CCCC(C)(COC(N)=O)COC(=O)NC(C)C (stereo unspecified) : ____
## Output 0.998

## Input Reported normalized growth, compound `O=c1c(O)c(-c2ccc(O)cc2O)oc2cc(O)cc(O)c12` : ____
## Output 0.991

## Input Reported normalized growth, compound COc1ccc2c(c1)CCC1C2CCC2(C)C1C[C@@H](O)C2O (stereo partly specified) : ____
## Output 0.998

Sourced from PubChem BioAssay AID1159580
